Below, each of the binders is paired with its reported interaction score value.
- system-tested: T1, P8A-bH
- T1 chain: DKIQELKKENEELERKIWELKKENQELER
- run-description: two-hybrid library CCNG1;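 further: natural log of median RNA to DNA barcode read ratio; higher means stronger binding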
Keep it simple and answer with nothing but the number.

Take a look at these entries with their results.
# interaction score of DKNQELKKKIEELKRKIWELKKENQELER [P12A-bH] = 0.274

# interaction score of DENQELEKEIEELEREIWELEKKNQELKR [P11A-bH] = 0.165

# interaction score of DKIQELKKKIEELKRENWELEKENQELER [P4A-bH] = 0.0606

Others:
# interaction score of DEIQELEKEIEELERKNWELKKKNQELKR [P3A-bH] = -1.03

# interaction score of DKNQELKKEIEELERENWELEKKIQELKR [P6A-bH] = 0.924
